ASSAY_REMARKS: In vitro cytotoxicity, MTT assay
Type: cell-based
RECORDED_CONDITIONS: human, HepG2 cells; HepG2, 50 μg/mL, 24 h, control = 100; read-out: Cell Viability
READOUT_KIND: viability at 24 h, 50 μg/mL (%)
Please state the figure in %; there is no need to write the unit.

Cc1ccc2nc(N3CCCCC3)c(C=NNC(=S)NCc3ccccc3)cc2c1 : 101
Cc1cccc2cc(C=NNC(=S)NCCN3CCOCC3)c(N3CCCCC3)nc12 : 97.9

Req: Name the recorded viability at 24 h, 50 μg/mL for "Cc1ccc2nc(N3CCCCC3)c(C=NNC(=S)Nc3cccc(Cl)c3)cc2c1" .
Resp: 84.8

Req: Try this compound too: "Cc1ccc2nc(N3CCCCC3)c(C=NNC(=S)Nc3ccccc3)cc2c1"
Resp: 106

Req: Try this compound too: "Cc1cccc2cc(C=NNC(=S)Nc3ccccc3F)c(N3CCCCC3)nc12"
Resp: 100

Req: Try this compound too: "Cc1ccc2nc(N3CCCCC3)c(C=NNC(=S)Nc3cccc(F)c3)cc2c1"
Resp: 118

Req: Try this compound too: "Cc1ccc2nc(N3CCCCC3)c(C=NNC(=S)NCCN3CCOCC3)cc2c1"
Resp: 94

====

ASSAY_REMARKS: In vitro cytotoxicity, MTT assay
Type: cell-based
RECORDED_CONDITIONS: human, HepG2 cells; HepG2, 100 μg/mL, 24 h, control = 100; read-out: Cell Viability
Protocol: HepG2 cell line was obtained from the cell culture laboratory established in The University of Lahore. These cell lines were preserved in cryo vials present in liquid nitrogen. Cryo vials were revived for further processing. The cryo vials obtained from liquid nitrogen cylinder were thawed. […] After 4 h formazan crystals were solubilized with 10% sodium dodecylsulphate (SDS) (Invitrogen Inc.) and absorbance was taken at 570 nm. […]
Item-by-item account of viability at 24 h, 100 μg/mL
Please state the figure in %; there is no need to write the unit.

Cc1cccc2cc(C=NNC(=S)Nc3cccc(F)c3)c(N3CCCCC3)nc12 [Compound 6i] : 102
Cc1cccc2cc(C=NNC(=S)Nc3ccc(F)cc3)c(N3CCCCC3)nc12 [Compound 6j] : 93.7
Cc1ccc2nc(N3CCCCC3)c(C=NNC(=S)Nc3ccc(Cl)cc3)cc2c1 [Compound 5g] : 96.4
CCc1ccc(NC(=S)NN=Cc2cc3cccc(C)c3nc2N2CCCCC2)cc1 [Compound 6k] : 105

Now look at this entry.
Req: Name the recorded viability at 24 h, 100 μg/mL for Cc1cccc(C)c1NC(=S)NN=Cc1cc2cccc(C)c2nc1N1CCCCC1 [Compound 6d] .
Resp: 93.9

====

ASSAY_REMARKS: In vitro cytotoxicity, MTT assay
Format: cell-based
RECORDED_CONDITIONS: human, HepG2 cells; HepG2, 50 μg/mL, 24 h, control = 100; read-out: Cell Viability
Item-by-item account of viability at 24 h, 50 μg/mL
Please state the figure in %; there is no need to write the unit.

Illustrative cases are given below, each with its answer.
Cc1cccc2cc(C=NNC(N)=S)c(N3CCCCC3)nc12 [Compound 6a] : 82.5
Cc1cccc2cc(C=NNC(=S)Nc3ccc(Cl)cc3)c(N3CCCCC3)nc12 [Compound 6g] : 113
Cc1cccc2cc(C=NNC(=S)Nc3ccccc3)c(N3CCCCC3)nc12 [Compound 6b] : 89.9
Cc1ccc2nc(N3CCCCC3)c(C=NNC(N)=S)cc2c1 [Compound 5a] : 95.4
Cc1ccc2nc(N3CCCCC3)c(C=NNC(=S)Nc3c(C)cccc3C)cc2c1 [Compound 5d] : 105
CCc1ccc(NC(=S)NN=Cc2cc3cc(C)ccc3nc2N2CCCCC2)cc1 [Compound 5k] : 111
CCc1ccc(NC(=S)NN=Cc2cc3cccc(C)c3nc2N2CCCCC2)cc1 [Compound 6k] : 103
Cc1cccc2cc(C=NNC(=S)Nc3cccc(Cl)c3)c(N3CCCCC3)nc12 [Compound 6f] : 110

Now look at this entry.
Req: Name the recorded viability at 24 h, 50 μg/mL for Cc1ccc2nc(N3CCCCC3)c(C=NNC(=S)Nc3ccccc3F)cc2c1 [Compound 5h] .
Resp: 113
